All figures here come from PubChem BioAssay AID2599.

Reported inhibition values follow for various compounds
biological target: Sentrin-specific protease 6 (Homo sapiens) (UniProt Q9GZR1); assay: SENP6 protease inhibitors, primary screen, biochemical, luminescence, uHTS (AID 2599); conditions: Recombinant SENP6 catalytic domain, aminoluciferin luminescence; at 10 µM; stronger effect = higher value;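 further: plate controls were DMSO wells with enzyme for no effect and DMSO wells lacking enzyme for full effect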
Sequence (Q9GZR1 628-1112 limits assumed): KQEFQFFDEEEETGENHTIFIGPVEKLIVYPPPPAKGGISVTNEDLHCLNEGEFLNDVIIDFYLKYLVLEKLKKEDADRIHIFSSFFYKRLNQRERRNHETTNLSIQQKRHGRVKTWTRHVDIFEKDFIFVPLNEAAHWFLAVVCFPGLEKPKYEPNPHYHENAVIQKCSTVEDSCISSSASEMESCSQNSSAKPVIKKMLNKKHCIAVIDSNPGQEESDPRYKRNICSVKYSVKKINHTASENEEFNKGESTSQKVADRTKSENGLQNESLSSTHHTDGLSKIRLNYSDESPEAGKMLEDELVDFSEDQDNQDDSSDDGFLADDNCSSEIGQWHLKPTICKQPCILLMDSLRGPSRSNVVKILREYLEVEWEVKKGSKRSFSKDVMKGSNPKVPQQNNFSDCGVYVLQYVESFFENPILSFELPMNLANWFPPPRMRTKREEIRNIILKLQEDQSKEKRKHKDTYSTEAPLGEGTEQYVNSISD
Screen size: about 330,000 compounds; about 5,800 (1.8%) were called active. This is one part of a sample in which actives are shown more often than they occur.
Provide only the numeric value, understood in %.

Cc1ccc(-c2nc(-c3cccnc3)sc2CC(=O)Nc2ccc(C)c(Cl)c2)cc1 ... -22
N/C(=N\OC(=O)CCC1CCCCC1)c1ccccn1 ... 87.4
COc1ccccc1OCC(=O)O/N=C(\N)c1ccccn1 ... 13.8
O=C(NCc1ccncc1)C1CCN(C(=O)c2cccc(Cl)c2)CC1 ... -3.02
COC(CNC(=O)Cn1ncc2ccsc2c1=O)OC ... -0.866
O=C1c2ccccc2C(=O)N1Cc1cc(-c2ccccc2Cl)no1 ... -13.7
CCOc1ccc(NC(=O)COc2ccc(S(=O)(=O)N3CCCC3)cc2)cc1 ... -19.8
O=C(O)/C=C/c1ccc(S(=O)(=O)N2CCCCCC2)cc1 ... 16.2

Please report the recorded inhibition for O=C(c1ccccc1)N1N=C(c2ccccc2O)CC1c1ccc(Br)cc1 (configuration not stated) .
-41.6

Follow-up item: `N/C(=N\OC(=O)CC1CCCCC1)c1ccccc1`
40.3

Follow-up item: `Nc1ccc(N=Nc2ccccc2Cl)c(N)n1`
81.2

Follow-up item: Brc1ccc(C2CC(c3ccccc3)=Nc3ccccc3N2)cc1 (configuration not stated)
81.3
